assay: physchem; conditions: pH 6, aqueous buffer
readout-type: Solubility (µg/mL)
API: value field is a number in µg/mL; no unit string.

The molecule listed as Cc1ccc(-c2cc(C(F)(F)F)nn2-c2ccc(S(=O)(=O)NC(=O)CCN)cc2)cc1 [prototype] shows Solubility equal to 80

* * *

assay: physchem; conditions: pH 7, aqueous buffer
readout-type: Solubility (µg/mL)
API: value field is a number in µg/mL; no unit string.

The compound listed as `Cc1ccc(-c2cc(C(F)(F)F)nn2-c2ccc(S(=O)(=O)NC(=O)CCN)cc2)cc1` shows Solubility equal to 90

* * *

test: physchem; details: pH 4, aqueous buffer
readout-type: Solubility (µg/mL)
API: value field is a number in µg/mL; no unit string.

The compound listed as `Cc1ccc(-c2cc(C(F)(F)F)nn2-c2ccc(S(=O)(=O)NC(=O)CCN)cc2)cc1` shows Solubility equal to 80
